- test-system: human Cot catalytic domain (30-397 amino acids) (Homo sapiens)
- Construct: Purified recombinant human Cot catalytic domain (30-397 amino acids) was purchased from Cama Biosciences; purchased Cama Biosciences (so in the source)
- Sequence (P41279 30-397): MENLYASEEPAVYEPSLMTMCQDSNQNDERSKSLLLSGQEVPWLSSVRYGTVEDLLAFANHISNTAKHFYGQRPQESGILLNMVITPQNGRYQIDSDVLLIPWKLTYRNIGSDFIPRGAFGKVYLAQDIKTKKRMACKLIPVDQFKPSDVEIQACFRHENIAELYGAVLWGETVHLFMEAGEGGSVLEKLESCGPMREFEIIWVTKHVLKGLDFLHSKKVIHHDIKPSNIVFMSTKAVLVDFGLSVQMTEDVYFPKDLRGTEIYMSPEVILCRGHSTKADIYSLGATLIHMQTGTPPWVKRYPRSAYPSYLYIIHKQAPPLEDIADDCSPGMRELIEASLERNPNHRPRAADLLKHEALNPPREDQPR
- test-method-notes: High Throughput Cot Biochemical Assay (KinEASE TR-FRET)
- condition-info: Cot biochemical HTRF (KinEASE TR-FRET) assay; read-out: IC50 HTRF
- Description: Example 61: High Throughput Cot Biochemical Assay In this assay, Cot-catalyzes the phosphorylation of a XL665-labeled peptide substrate. Europium conjugated phospho-tyrosine specific antibody binds the resulting phosphorylated peptide. […] Purified recombinant human Cot catalytic domain (30-397 amino acids) was purchased from Cama Biosciences. […]

{"molecule": "COCCOCCn1cc([C@@H](Nc2cc(Cl)c3ncc(C#N)c(Nc4ccc(F)c(F)c4)c3c2)c2ccc(Cl)cc2)nn1", "IC50 (nM)": 87}
{"molecule": "N#Cc1cnc2c(Cl)cc(N[C@@H](c3ccc(F)cc3)c3c[nH]nn3)cc2c1N[C@H](CO)c1ccccc1", "IC50 (nM)": 31}
{"molecule": "CC(C)(C)N1CCC(n2cc([C@@H](Nc3cc(Cl)c4ncc(C#N)c(NC56CC7CC(CC(C7)C5)C6)c4c3)c3ccccc3)nn2)CC1", "IC50 (nM)": 36}
{"molecule": "CC(C)(C)N1CCC(n2cc([C@@H](Nc3cc(Cl)c4ncc(C#N)c(Nc5ccc(Cl)c(Cl)c5F)c4c3)c3ccccc3)nn2)CC1", "IC50 (nM)": 11}
{"molecule": "CCN1CCC(n2cc([C@@H](Nc3ccc4ncc(C#N)c(Nc5ccc(F)c(Cl)c5)c4c3)c3ccccc3)nn2)CC1", "IC50 (nM)": 4}
{"molecule": "Cn1ccnc1C(Nc1cc(Cl)c2ncc(C#N)c(Nc3ccc(F)c(Cl)c3)c2c1)c1ccc(F)cc1 (stereo not shown)", "IC50 (nM)": 366}
{"molecule": "Cc1cccc(CNc2c(C#N)cnc3c(Cl)cc(N[C@@H](c4ccc(Cl)cc4)c4cn(C5CCN(C(C)(C)C)CC5)nn4)cc23)c1", "IC50 (nM)": 355}
